# IC50 values compiled below
SYSTEM: mouse TRPM3α2 (mTRPM3) ion channel (Mus musculus)
MEASUREMENT_NOTES: TRPM3 ion channel driven Ca2+ uptake, Fluo-4 AM assay, PS-stimulated (mTRPM3)
CONDITIONS: TRPM3 overexpressing flip-in HEK293 cells stimulated with Pregnenolone sulfate (PS) 50 μM, activity ranges A, B, C

Q: Report IC50 for Cc1oc2ccc(COc3ccccc3F)cc2c1C(=O)NC(C)C(N)=O (single isomer, unassigned) [Cpd 320-En 1] please.
Result: < 1 µM

New cases:
Q: Report IC50 for Cc1oc2ccc(OCc3c(F)cccc3Cl)cc2c1C(=O)N(C)C please.
Result: 1 to 20 µM

Q: Report IC50 for Cc1oc2ccc(OCc3ccccc3F)cc2c1C(=O)N[C@@H]1COC[C@@H]1O (single isomer, unassigned) [Cpd 329-En 1] please.
Result: < 1 µM

Q: Report IC50 for Cc1oc2ccc(OCc3c(F)cccc3F)cc2c1C(=O)N[C@H]1CCNC1 please.
Result: < 1 µM

Q: Report IC50 for Cc1oc2ccc(COc3ccccc3F)cc2c1C(=O)NC(CO)C(N)=O (single isomer, unassigned) [Cpd 321-En 1] please.
Result: 1 to 20 µM

Q: Report IC50 for Cc1oc2ccc(OCc3ccccc3)cc2c1C(=O)NCc1ccccc1 please.
Result: > 20 µM

Q: Report IC50 for Cc1oc2ccc(OCc3ccc(F)cc3)cc2c1C(=O)NS(=O)(=O)C1CC1 please.
Result: 1 to 20 µM

---

# pIC50 values compiled below
SYSTEM: mouse TRPM3α2 (mTRPM3) ion channel (Mus musculus, UniProt J9SQF3)
Construct: expressed in transfected cells; host or cells: flip-in HEK293
Sequence (J9SQF3 1-1709 isoform J9SQF3-12): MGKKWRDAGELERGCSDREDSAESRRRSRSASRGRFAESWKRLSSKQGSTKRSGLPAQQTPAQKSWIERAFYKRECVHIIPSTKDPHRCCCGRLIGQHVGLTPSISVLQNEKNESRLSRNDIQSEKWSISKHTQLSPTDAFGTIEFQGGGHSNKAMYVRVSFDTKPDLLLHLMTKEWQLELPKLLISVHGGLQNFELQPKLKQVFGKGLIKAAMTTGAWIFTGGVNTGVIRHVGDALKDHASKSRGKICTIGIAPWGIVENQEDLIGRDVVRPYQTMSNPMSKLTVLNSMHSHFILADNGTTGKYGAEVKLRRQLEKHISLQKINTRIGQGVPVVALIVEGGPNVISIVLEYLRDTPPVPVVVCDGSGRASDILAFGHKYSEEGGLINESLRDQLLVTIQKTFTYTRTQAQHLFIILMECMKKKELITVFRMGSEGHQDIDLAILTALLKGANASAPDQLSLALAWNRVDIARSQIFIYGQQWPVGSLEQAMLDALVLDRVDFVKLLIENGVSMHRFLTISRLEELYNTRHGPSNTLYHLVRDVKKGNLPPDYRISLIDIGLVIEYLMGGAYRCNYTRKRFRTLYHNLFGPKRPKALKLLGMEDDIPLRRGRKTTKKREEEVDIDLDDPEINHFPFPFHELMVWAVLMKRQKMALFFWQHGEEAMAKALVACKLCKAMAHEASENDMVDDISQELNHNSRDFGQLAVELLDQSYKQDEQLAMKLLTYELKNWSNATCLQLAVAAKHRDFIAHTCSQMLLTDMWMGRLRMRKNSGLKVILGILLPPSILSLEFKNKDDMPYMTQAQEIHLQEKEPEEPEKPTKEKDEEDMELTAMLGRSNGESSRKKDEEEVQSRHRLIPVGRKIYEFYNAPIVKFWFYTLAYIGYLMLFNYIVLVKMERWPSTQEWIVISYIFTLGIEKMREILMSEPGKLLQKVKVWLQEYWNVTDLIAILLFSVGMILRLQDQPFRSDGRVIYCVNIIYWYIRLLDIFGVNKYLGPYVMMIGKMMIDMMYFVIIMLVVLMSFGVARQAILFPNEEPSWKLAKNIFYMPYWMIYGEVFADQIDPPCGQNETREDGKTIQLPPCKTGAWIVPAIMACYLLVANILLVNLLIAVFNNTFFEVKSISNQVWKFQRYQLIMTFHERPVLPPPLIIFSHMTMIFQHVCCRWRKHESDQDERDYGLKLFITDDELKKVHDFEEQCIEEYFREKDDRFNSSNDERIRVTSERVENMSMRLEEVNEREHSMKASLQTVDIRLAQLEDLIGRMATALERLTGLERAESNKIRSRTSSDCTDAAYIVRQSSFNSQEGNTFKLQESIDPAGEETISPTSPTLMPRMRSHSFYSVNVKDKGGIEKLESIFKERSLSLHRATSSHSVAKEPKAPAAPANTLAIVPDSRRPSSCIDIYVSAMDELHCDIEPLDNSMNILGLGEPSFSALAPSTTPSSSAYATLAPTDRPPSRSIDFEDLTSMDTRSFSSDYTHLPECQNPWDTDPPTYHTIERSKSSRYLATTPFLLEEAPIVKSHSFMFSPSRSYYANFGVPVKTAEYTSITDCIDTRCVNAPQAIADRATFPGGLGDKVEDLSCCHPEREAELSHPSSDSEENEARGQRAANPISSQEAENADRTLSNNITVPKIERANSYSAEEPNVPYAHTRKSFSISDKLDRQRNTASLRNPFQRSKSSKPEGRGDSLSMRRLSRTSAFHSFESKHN
MEASUREMENT_NOTES: TRPM3 ion channel driven Ca2+ uptake, Fluo-4 AM assay, PS-stimulated (mTRPM3)
Assay type: cell-based
CONDITIONS: TRPM3 overexpressing flip-in HEK293 cells stimulated with Pregnenolone sulfate (PS) 50 μM, activity ranges A, B, C
pIC50: −log10 of the molar value.

Q: Report pIC50 for Cc1oc2ccc(OCc3ccccc3F)cc2c1C(=O)NC(C)(C)CO please.
Result: > 6.00

Q: Report pIC50 for Cc1oc2ccc(OCc3cccc(F)c3)cc2c1C(N)=O please.
Result: < 4.70

Q: Report pIC50 for Cc1oc2ccc(OCc3ccccc3)c(C#N)c2c1C(=O)NC1CNCC1(F)F (single isomer, unassigned) [Cpd 297-En 1] please.
Result: > 6.00

Q: Report pIC50 for Cc1oc2c(C)cc(OCc3ccccc3)cc2c1C(=O)NC1CNCC1(F)F (single isomer, unassigned) [Cpd 307-En 2] please.
Result: < 4.70

Q: Report pIC50 for Cc1oc2ccc(OCc3ccccc3)cc2c1C(=O)NCCN1CCOCC1 please.
Result: 4.70 to 6.00

New cases:
Q: Report pIC50 for Cc1oc2ccc(OCc3ccccc3)cc2c1C(=O)NC1CC(C)(C)NC(C)(C)C1 please.
Result: 4.70 to 6.00

Q: Report pIC50 for Cc1oc2ccc(OCc3ccccc3)cc2c1C(=O)NC1CCN(c2ncccn2)CC1 please.
Result: > 6.00

Q: Report pIC50 for Cc1oc2ccc(OCc3ccc(CN)cc3)cc2c1C(=O)NC1CCN(C)CC1 please.
Result: < 4.70

Q: Report pIC50 for Cc1cc2oc(C)c(C(=O)NC3CNCC3(F)F)c2cc1OCc1ccccc1 (single isomer, unassigned) [Cpd 303-En 1] please.
Result: 4.70 to 6.00

Q: Report pIC50 for Cc1oc2ccc(OCc3ccccc3CO)cc2c1C(=O)NC1CCN(C)CC1 please.
Result: 4.70 to 6.00

Q: Report pIC50 for Cc1oc2ccc(OCc3ccc(C#N)cc3)cc2c1C(=O)N[C@H]1CCNC1 please.
Result: 4.70 to 6.00

---

SYSTEM: mouse TRPM3α2 (mTRPM3) ion channel (Mus musculus)
MEASUREMENT_NOTES: TRPM3 ion channel driven Ca2+ uptake, Fluo-4 AM assay, PS-stimulated (mTRPM3)
CONDITIONS: TRPM3 overexpressing flip-in HEK293 cells stimulated with Pregnenolone sulfate (PS) 50 μM, activity ranges A, B, C
OBSERVED_PROPERTY: IC50

Q: Report IC50 for Cc1oc2ccc(OCc3ccccc3)cc2c1C(=O)N1CCCC(N(C)C)C1 (stereo not shown) [Cpd 150] please.
Result: > 20 µM

Q: Report IC50 for Cc1oc2ccc(OCc3ccccc3)cc2c1C(=O)N[C@@H]1CCN(C)C1 [Cpd 080] please.
Result: < 1 µM

Q: Report IC50 for Cc1oc2ccc(OCc3ccccc3)cc2c1C(=O)NC1CC(CO)(CO)C1 [Cpd 166] please.
Result: < 1 µM

Please find the next compound below.
Q: Report IC50 for Cc1oc2cc(C#N)c(OCc3ccccc3)cc2c1C(=O)NC1CNCC1(F)F (single isomer, unassigned) [Cpd 301-En 2] please.
Result: > 20 µM

---

SYSTEM: mouse TRPM3α2 (mTRPM3) ion channel (Mus musculus, UniProt J9SQF3)
MEASUREMENT_NOTES: TRPM3 ion channel driven Ca2+ uptake, Fluo-4 AM assay, PS-stimulated (mTRPM3)
CONDITIONS: TRPM3 overexpressing flip-in HEK293 cells stimulated with Pregnenolone sulfate (PS) 50 μM, activity ranges A, B, C
pIC50: −log10 of the molar value.
# pIC50 values compiled below

Q: Report pIC50 for Cc1oc2ccc(OCc3cccc(C(F)(F)F)c3)cc2c1C(=O)O please.
Result: 4.70 to 6.00

Q: Report pIC50 for Cc1oc2ccc(OCc3ccccc3F)cc2c1C(=O)NC(C)(C)C(N)=O please.
Result: > 6.00

Q: Report pIC50 for Cc1oc2ccc(OCc3ccccc3)cc2c1C(=O)N[C@@H]1CCCN(C2COC2)C1 please.
Result: > 6.00

Q: Report pIC50 for O=C(O)c1c(C2CCCC2)oc2ccc(OCc3ccccc3)cc12 please.
Result: < 4.70

New cases:
Q: Report pIC50 for Cc1oc2ccc(OC(CN(C)C)c3ccccc3)cc2c1C(=O)N[C@@H](CO)C(N)=O (single isomer, unassigned) [Cpd 347-En 2] please.
Result: > 6.00

Q: Report pIC50 for Cc1oc2c(C#N)cc(OCc3ccccc3)cc2c1C(=O)NC1CNCC1(F)F (single isomer, unassigned) [Cpd 305-En 1] please.
Result: < 4.70

Q: Report pIC50 for Cc1oc2ccc(OCc3ccccc3)cc2c1C(=O)N[C@@H](CO)C(N)=O please.
Result: > 6.00

These data points were gathered from patent US20230391739A1.
